Reference source for all entries: patent US5538978A

Target: purine nucleoside phosphorylase (PNP), Bovine Spleen (Bos taurus, UniProt P55859)
Sequence (P55859 1-289): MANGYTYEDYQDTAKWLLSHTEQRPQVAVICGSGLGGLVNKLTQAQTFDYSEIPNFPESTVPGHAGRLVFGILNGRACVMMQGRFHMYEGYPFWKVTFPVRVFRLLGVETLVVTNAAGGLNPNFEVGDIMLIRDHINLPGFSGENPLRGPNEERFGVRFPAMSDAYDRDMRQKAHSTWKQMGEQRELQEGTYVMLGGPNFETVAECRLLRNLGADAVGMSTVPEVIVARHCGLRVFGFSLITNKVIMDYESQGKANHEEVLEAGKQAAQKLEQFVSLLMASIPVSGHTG
The entries below come with measured pKi values attached.
// field semantics: pKi = negative decimal log of concentration (mol/L)

Here's what some known entries look like.
compound="Nc1nc2c(ncn2Cc2ccccc2C(F)C(F)(F)P(=O)(O)O)c(=O)[nH]1 (stereo not drawn)" observed_measurement=9.22
compound=Nc1nc2c(ncn2Cc2ccccc2C=C(F)P(=O)(O)O)c(=O)[nH]1 observed_measurement=9.10

Please look at the following compound next.
If you can, please state the reported pKi value of "Nc1nc2c(ncn2Cc2ccccc2CC(F)(F)P(=O)(O)O)c(=O)[nH]1" . 8.40

----------
Biological target: purine nucleoside phosphorylase (PNP), Rat Erythrocytes (Rattus norvegicus, UniProt P85973)
Construct: Spleen Erythrocytes; from tissue; host or cells: erythrocytes
Sequence (P85973 1-289): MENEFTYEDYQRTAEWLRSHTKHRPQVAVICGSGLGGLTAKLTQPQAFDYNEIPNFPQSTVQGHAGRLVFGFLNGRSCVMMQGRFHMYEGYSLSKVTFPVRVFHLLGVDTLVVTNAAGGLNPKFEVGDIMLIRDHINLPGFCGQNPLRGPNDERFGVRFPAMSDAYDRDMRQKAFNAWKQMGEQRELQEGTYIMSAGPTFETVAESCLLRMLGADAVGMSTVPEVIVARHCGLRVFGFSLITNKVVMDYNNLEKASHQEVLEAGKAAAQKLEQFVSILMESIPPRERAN
Experiment: PNP inhibition, coupled xanthine oxidase method of Kalckar, inosine as substrate; rat erythrocyte PNP
Type: biochemical
OBSERVABLE: Ki (µM)
// note: answer is a bare numeric in µM

compound_smiles=Nc1nc2c(ncn2Cc2ccccc2OCCC(F)(F)P(=O)(O)O)c(=O)[nH]1 observable=Ki unit_of_measure=µM observed_measurement=0.037

# get_value(readout='Ki', item= "Nc1nc2c(ncn2Cc2ccccc2OCP(=O)(O)O)c(=O)[nH]1" ) 0.0073

----------
target: purine nucleoside phosphorylase (PNP), E. Coli (Escherichia coli, UniProt P0ABP8); assay: PNP inhibition, coupled xanthine oxidase method of Kalckar, inosine as substrate; E. Coli PNP; type: biochemical; details: 1 mM inorganic phosphate, 0.1 M HEPES pH 7.4, inosine 0.05-0.15 mM; read-out: Ki, PNP source E. Coli
Sequence (P0ABP8 2-239): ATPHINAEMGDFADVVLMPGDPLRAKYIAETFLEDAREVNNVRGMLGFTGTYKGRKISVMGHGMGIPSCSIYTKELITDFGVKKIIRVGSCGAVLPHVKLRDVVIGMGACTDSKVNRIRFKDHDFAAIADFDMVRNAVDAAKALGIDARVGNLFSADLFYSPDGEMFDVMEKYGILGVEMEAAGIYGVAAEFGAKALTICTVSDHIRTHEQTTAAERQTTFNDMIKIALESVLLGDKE
Listed here are compounds together with their documented Ki.
Give the value in nM but do not write nM after it.

compound_smiles=Nc1nc2c(ncn2Cc2ccccc2C=C(F)P(=O)(O)O)c(=O)[nH]1 observed_measurement=0.25

// next entry
// returns reported Ki for input "Nc1nc2c(ncn2Cc2ccccc2OCP(=O)(O)O)c(=O)[nH]1" 4.5

----------
Biological target: purine nucleoside phosphorylase (PNP), Rat Erythrocytes (Rattus norvegicus)
Construct: Spleen Erythrocytes; from tissue; host or cells: erythrocytes
Sequence (P85973 1-289): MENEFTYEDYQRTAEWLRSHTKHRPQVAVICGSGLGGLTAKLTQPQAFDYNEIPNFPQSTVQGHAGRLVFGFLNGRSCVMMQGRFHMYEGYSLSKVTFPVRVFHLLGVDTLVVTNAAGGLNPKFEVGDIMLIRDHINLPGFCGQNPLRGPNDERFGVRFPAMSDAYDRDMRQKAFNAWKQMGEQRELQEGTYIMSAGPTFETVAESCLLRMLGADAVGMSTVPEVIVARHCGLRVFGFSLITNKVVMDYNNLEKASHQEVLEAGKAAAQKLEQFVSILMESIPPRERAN
Assay: PNP inhibition, coupled xanthine oxidase method of Kalckar, inosine as substrate; rat erythrocyte PNP
Assay type: biochemical
Conditions: 1 mM inorganic phosphate, 0.1 M HEPES pH 7.4, inosine 0.05-0.15 mM; read-out: Ki, PNP source Rat Erythrocytes
OBSERVABLE: Ki

Name the recorded Ki for "Nc1nc2c(ncn2Cc2ccccc2CC(F)(F)P(=O)(O)O)c(=O)[nH]1" . 2 nM
